B1: RIT1 (parent)
chain: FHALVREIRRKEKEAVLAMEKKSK

# Variants of: B1
# METHOD DESCRIPTION: protein stability index of a GFP-peptide fusion (GPS, HEK-293T) (PSI 1-6); higher = more stable;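 further: lentivirally expressed fusions sorted by FACS into six bins by GFP to DsRed ratio, PSI derived from sequencing read proportions per bin multiplied by bin number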
# CONDITION NOTES: c terminus: a fixed tail appended
METRIC NAME: protein stability index
# respond with the number and nothing more

query: Please look up its protein stability index: M19Q
result: 1.44

query: # input variant: F1V ; wanted: its protein stability index
result: 3.04

query: Sample K11H — what was its protein stability index?
result: 2.05

query: For the variant I8C , what protein stability index is on record?
result: 2.25

query: Which protein stability index value belongs to E20M ?
result: 2.08

query: Find the recorded protein stability index belonging to I8L and report it.
result: 1.65

query: Which protein stability index reading was recorded for the variant K11Y ?
result: 1.64

query: Which protein stability index reading was recorded for the variant E12N ?
result: 2.45

query: Please look up its protein stability index: I8R
result: 2.32

query: Find the recorded protein stability index belonging to E14T and report it.
result: 1.93

query: Field request: protein stability index | item: A3G
result: 2.15

query: Which protein stability index reading was recorded for the variant R6C ?
result: 2.07

query: Query (variant): L17A ; field requested: protein stability index
result: 1.85

query: Looking for the measured protein stability index of E12V , can you help?
result: 2.48

query: Param item = K21Q ; retrieve measured protein stability index.
result: 2.66

query: What value of protein stability index has been recorded for this entry: S23G
result: 1.68

query: Bench note: what protein stability index did S23I show?
result: 1.76

query: Param item = R9I ; retrieve measured protein stability index.
result: 2

query: Request the reported protein stability index associated with L17H
result: 2.11

query: Which protein stability index is listed for R10A ?
result: 3.88

query: Which protein stability index is listed for E20C ?
result: 1.52

query: Which measured protein stability index value corresponds to K22V ?
result: 1.55

query: Given the entry R6P , report its measured protein stability index.
result: 1.81

query: Given the entry H2N , report its measured protein stability index.
result: 3.23

query: Returns the measured protein stability index for the input variant. Input: E7G
result: 1.62

query: So what does the record say about protein stability index for A3Y ?
result: 2.13

query: For the variant H2E , what protein stability index is on record?
result: 3.37

query: Please look up its protein stability index: I8M
result: 2.32

query: Tell me the measured protein stability index of E20L , please.
result: 1.61

query: Name the recorded protein stability index for K21L .
result: 2.2

query: Value lookup for protein stability index; key = R6K
result: 1.43

query: protein stability index for E12R ?
result: 2.06

query: Requested read-out: protein stability index. Entry: V5C
result: 2.08

query: Recorded protein stability index of E12S , please.
result: 3

query: Could you tell me which protein stability index is on file for K11N ?
result: 1.45

query: Name the recorded protein stability index for I8Q .
result: 2.47

query: State the recorded protein stability index for this entry: K21T
result: 2.11

query: Recorded protein stability index for V5N , please?
result: 1.8

query: For R10C , what is its reported protein stability index?
result: 2.7

query: Report protein stability index for K21E please.
result: 1.39
